- assay_explanation: Concentration required for 50% inhibition of [125I]- AII binding to rabbit uterus membrane preparation (AT2)
- Type: tissue-based, Oryctolagus cuniculus
# IC50 annotations
Value expressed in nM; do not type the unit.

Example entries begin here.
CCCc1nc(SC)c(C(=O)C[S+]([O-])c2ccc(C)cc2)n1Cc1ccc(-c2ccccc2S(=O)(=O)NC(=O)NCc2ccccc2)cc1 (single isomer, unassigned; 7g) = 1.4
CCCCc1nc(SC)c(C(=O)CS(=O)(=O)c2ccc(F)cc2)n1Cc1ccc(-c2ccccc2S(=O)(=O)NC(=O)NCc2ccccc2)cc1 = 0.8
CCCc1nc(SC)c(C(=O)CS(=O)(=O)c2ccc(OC)cc2)n1Cc1ccc(-c2ccccc2S(=O)(=O)NC(=O)NCc2ccccc2)cc1 = 2.1

Entry CCCc1nc(SC)c(C(=O)C[S+]([O-])c2ccccc2)n1Cc1ccc(-c2ccccc2S(=O)(=O)NC(=O)NCC2CCCC2)cc1 (centres undefined) : reported IC50 = ? 7

Entry CCCc1nc(SC)c(C(=O)CS(=O)(=O)c2ccccc2)n1Cc1ccc(-c2ccccc2S(=O)(=O)NC(=O)NCc2ccccc2)cc1 : reported IC50 = ? 2.7

Entry CCCc1nc(SC)c(C(=O)CC#N)n1Cc1ccc(-c2ccccc2S(=O)(=O)NC(=O)NCc2ccccc2)cc1 : reported IC50 = ? 110

====

- target: Angiotensin II receptor (AT-1) type-1 (Rattus norvegicus, UniProt P29089+P25095)
- assay_explanation: Concentration required for 50% inhibition of [125I]- AII binding to rat liver membrane preparation (AT1)
Could you please classify the records by IC50 using these ranges: lower band = under 0.08 nM, central band = from 0.08 nM up to 0.2 nM, upper band = 0.2 nM and over

Use these answered entries as a reference point.
CCCCc1nc(SC)c(C(=O)CS(=O)(=O)c2ccccc2)n1Cc1ccc(-c2ccccc2S(=O)(=O)NC(=O)NCc2ccccc2)cc1 = lower band
CCCCc1nc(SC)c(C(=O)CC(=O)OCC)n1Cc1ccc(-c2ccccc2S(=O)(=O)NC(=O)NCc2ccccc2)cc1 = central band
CCCc1nc(SC)c(C(=O)CS(=O)(=O)c2ccccc2)n1Cc1ccc(-c2ccccc2S(=O)(=O)NC(=O)NCc2ccccc2)cc1 = central band
CCCc1nc(SC)c(C(=O)CS(=O)(=O)c2ccc(OC)cc2)n1Cc1ccc(-c2ccccc2S(=O)(=O)NC(=O)NCc2ccccc2)cc1 = central band
CCc1nc(SC)c(C(=O)C[S+]([O-])c2ccccc2)n1Cc1ccc(-c2ccccc2S(=O)(=O)NC(=O)NCc2ccccc2)cc1 (centres undefined) = lower band
CCCCc1nc(SC)c(C(=O)CS(=O)(=O)c2ccc(F)cc2)n1Cc1ccc(-c2ccccc2S(=O)(=O)NC(=O)NCc2ccccc2)cc1 = lower band

Field: class (IC50) — entry: CCCc1nc(SC)c(C(=O)C[S+]([O-])c2ccccc2)n1Cc1ccc(-c2ccccc2S(=O)(=O)NC(=O)NCC2CCCCC2)cc1 (centres undefined) upper band

Field: class (IC50) — entry: CCCc1nc(SC)c(C(=O)C[S+]([O-])c2ccccc2)n1Cc1ccc(-c2ccccc2S(=O)(=O)NC(=O)NCC2CCCC2)cc1 (centres undefined) upper band

Field: class (IC50) — entry: CCCCc1nc(SC)c(C(=O)C[S+]([O-])c2ccccc2)n1Cc1ccc(-c2ccccc2S(=O)(=O)NC(=O)NCc2ccccc2)cc1 (centres undefined) lower band

Field: class (IC50) — entry: CCCCc1nc(SC)c(C(=O)C(CCC)S(=O)(=O)c2ccccc2)n1Cc1ccc(-c2ccccc2S(=O)(=O)NC(=O)NCc2ccccc2)cc1 (centres undefined) upper band

Field: class (IC50) — entry: CCCCc1nc(SC)c(C(=O)C[S+](C)[O-])n1Cc1ccc(-c2ccccc2S(=O)(=O)NC(=O)NCc2ccccc2)cc1 (centres undefined) upper band
